- Assay Name: Thermodynamic equilibrium aqueous solubility assay
- Assay type: physicochemical
- Condition Parameters: thermodynamic from solid, room temperature, default 50 mM pH 6.5 potassium phosphate buffer
Reported Property: solubility (µg/mL)

Worked examples, 2 compounds total:
Cc1ccc(-c2c(-c3ccc(Cl)cc3)c3nnc([C@H](C)N)n3n(Cc3ccc(C(F)(F)F)nc3C)c2=O)cc1: 38
CNCc1nnc2c(-c3ccc(Cl)cc3)c(-c3ccccc3)c(=O)n(Cc3ccc(C(F)(F)F)nc3C)n12: 25

(a) Cc1nc(C(F)(F)F)ccc1Cn1c(=O)c(-c2ccccc2)c(-c2ccc(Cl)cc2)c2nnc([C@@H](C)O)n21
(b) Cc1ccc(-c2c(-c3ccc(Cl)cc3)c3nnc([C@H](C)O)n3n(Cc3ccc(C(F)(F)F)nc3C)c2=O)cc1
(c) Cc1nc(C(F)(F)F)ccc1Cn1c(=O)c(-c2ccc(C#N)cc2)c(-c2ccc(Cl)cc2)c2nnc(CN(C)C)n21
(d) COCc1nnc2c(-c3ccc(Cl)cc3)c(-c3ccccc3)c(=O)n(Cc3ccc(C(F)(F)F)nc3C)n12
Input line: Please order the records by their reported solubility, lowest number first. # the answer lists labels in the order requested
Output line: c, d, b, a

* * *

- Tgt: recombinant human CB-1 (Homo sapiens, UniProt P21554)
- Construct: expressed in transfected cells; host or cells: CHO cells (CHO-CB-1), membrane preparation
- Sequence (P21554 whole entry): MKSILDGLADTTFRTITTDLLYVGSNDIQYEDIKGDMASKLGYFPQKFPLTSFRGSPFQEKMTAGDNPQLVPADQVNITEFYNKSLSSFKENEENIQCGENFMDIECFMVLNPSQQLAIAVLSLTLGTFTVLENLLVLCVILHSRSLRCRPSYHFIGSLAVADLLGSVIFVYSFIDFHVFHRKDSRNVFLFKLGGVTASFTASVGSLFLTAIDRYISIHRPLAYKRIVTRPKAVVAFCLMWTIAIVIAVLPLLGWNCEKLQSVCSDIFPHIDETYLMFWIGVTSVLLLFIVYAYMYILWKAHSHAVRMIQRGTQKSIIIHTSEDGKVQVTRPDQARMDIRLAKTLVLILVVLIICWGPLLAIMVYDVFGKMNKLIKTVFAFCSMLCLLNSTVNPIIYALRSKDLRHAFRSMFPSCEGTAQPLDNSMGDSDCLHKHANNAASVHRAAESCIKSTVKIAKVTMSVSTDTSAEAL
- Assay Name: Cannabinoid receptor binding assay (radioligand 3H-CP-55,940, CHO-CB-1 membranes)
- Condition Parameters: membranes of CHO cells over-expressing recombinant human CB-1, 2 nM 3H-CP-55,940, read-out: CB1 Ki
Reported Property: Ki (nM)

Cc1nc(C(F)(F)F)ccc1Cn1c(=O)c(-c2ccc(C#N)cc2)c(-c2ccc(Cl)cc2)c2nnc([C@H](C)O)n21: 10

(P) CNCc1nnc2c(-c3ccc(Cl)cc3)c(-c3ccccc3)c(=O)n(Cc3ccc(C(F)(F)F)nc3C)n12
(Q) Cc1nc(C(F)(F)F)ccc1Cn1c(=O)c(-c2ccc(C#N)cc2)c(-c2ccc(Cl)cc2)c2nnc([C@@H](C)O)n21
Input line: Returns the identifier with the smallest measured Ki among P and Q . Label of pick, please.
Output line: P

* * *

- Tgt: recombinant human CB-1 (Homo sapiens, UniProt P21554)
- Construct: expressed in transfected cells; host or cells: CHO cells (CHO-CB-1), membrane preparation
- Assay Name: Cannabinoid receptor binding assay (radioligand 3H-CP-55,940, CHO-CB-1 membranes)
- Condition Parameters: membranes of CHO cells over-expressing recombinant human CB-1, 2 nM 3H-CP-55,940, read-out: CB1 Ki
Reported Property: Ki (nM)

Cc1nc(C(F)(F)F)ccc1Cn1c(=O)c(-c2ccc(Cl)cc2)c(-c2ccc(Cl)cc2)c2nnc(CN)n21 [Example 15]: 12

(a) COCc1nnc2c(-c3ccc(Cl)cc3)c(-c3ccccc3)c(=O)n(Cc3ccc(C(F)(F)F)nc3C)n12 [Example 22]
(b) Cc1ccc(-c2c(-c3ccc(Cl)cc3)c3nnc([C@H](C)O)n3n(Cc3ccc(C(F)(F)F)nc3C)c2=O)cc1 [Example 19]
(c) Cc1nc(C(F)(F)F)ccc1Cn1c(=O)c(-c2ccc(C#N)cc2)c(-c2ccc(Cl)cc2)c2nnc(CN)n21 [Example 11]
(d) Cc1ccc(-c2c(-c3ccc(Cl)cc3)c(=O)n(Cc3ccc(C(F)(F)F)nc3C)n3c(CN)nnc23)cc1 [Example 17]
Input line: Form: Sort by [Ki] Order [ ascending ] List each label, following the requested order.
Output line: a, b, c, d

(1) Cc1ccc(-c2c(-c3ccc(Cl)cc3)c3nnc([C@H](C)N)n3n(Cc3ccc(C(F)(F)F)nc3C)c2=O)cc1 [Example 16]
(2) Cc1ccc(-c2c(-c3ccc(Cl)cc3)c(=O)n(Cc3ccc(C(F)(F)F)nc3C)n3c([C@H](C)O)nnc23)cc1 [Example 18]
(3) Cc1ccc(-c2c(-c3ccc(Cl)cc3)c3nnc(CN)n3n(Cc3ccc(C(F)(F)F)nc3C)c2=O)cc1 [Example 13]
(4) Cc1nc(C(F)(F)F)ccc1Cn1c(=O)c(-c2ccccc2)c(-c2ccc(Cl)cc2)c2nnc([C@@H](C)O)n21 [Example 21]
Input line: Sort the compounds on Ki; start with the lowest figure. // respond by listing labels in the order requested
Output line: 3, 1, 2, 4

(a) Cc1nc(C(F)(F)F)ccc1Cn1c(=O)c(-c2ccc(C#N)cc2)c(-c2ccc(Cl)cc2)c2nnc(CN(C)C)n21 [Example 10]
(b) Cc1nc(C(F)(F)F)ccc1Cn1c(=O)c(-c2ccc(C#N)cc2)c(-c2ccc(Cl)cc2)c2nnc(CO)n21 [Example 3]
(c) Cc1nc(C(F)(F)F)ccc1Cn1c(=O)c(-c2ccccc2)c(-c2ccc(Cl)cc2)c2nnc([C@H](C)O)n21 [Example 20]
Input line: Please rank these compounds by Ki in descending order. # output: labels, in the requested order
Output line: a, c, b

(A) COCc1nnc2c(-c3ccc(Cl)cc3)c(-c3ccc(C#N)cc3)c(=O)n(Cc3ccc(C(F)(F)F)nc3C)n12 [Example 2]
(B) Cc1nc(C(F)(F)F)ccc1Cn1c(=O)c(-c2ccccc2)c(-c2ccc(Cl)cc2)c2nnc(CN)n21 [Example 12]
Input line: In terms of reported Ki, does A or B have the smaller number? # respond with the chosen item's label
Output line: A

* * *

- Assay Name: Thermodynamic equilibrium aqueous solubility assay
- Type: physicochemical
- Condition Parameters: thermodynamic from solid, room temperature, default 50 mM pH 6.5 potassium phosphate buffer
Reported Property: solubility (µg/mL)

Cc1nc(C(F)(F)F)ccc1Cn1c(=O)c(-c2ccccc2)c(-c2ccc(Cl)cc2)c2nnc([C@H](C)O)n21: 22
Cc1ccc(-c2c(-c3ccc(Cl)cc3)c3nnc(CN)n3n(Cc3ccc(C(F)(F)F)nc3C)c2=O)cc1: 20
Cc1nc(C(F)(F)F)ccc1Cn1c(=O)c(-c2ccc(Cl)cc2)c(-c2ccc(Cl)cc2)c2nnc(CN)n21: 16

(a) Cc1nc(C(F)(F)F)ccc1Cn1c(=O)c(-c2ccc(C#N)cc2)c(-c2ccc(Cl)cc2)c2nnc(CO)n21
(b) Cc1ccc(-c2c(-c3ccc(Cl)cc3)c(=O)n(Cc3ccc(C(F)(F)F)nc3C)n3c(CN)nnc23)cc1
(c) Cc1ccc(-c2c(-c3ccc(Cl)cc3)c(=O)n(Cc3ccc(C(F)(F)F)nc3C)n3c([C@H](C)O)nnc23)cc1
(d) Cc1nc(C(F)(F)F)ccc1Cn1c(=O)c(-c2ccc(C#N)cc2)c(-c2ccc(Cl)cc2)c2nnc([C@@H](C)O)n21
(e) Cc1nc(C(F)(F)F)ccc1Cn1c(=O)c(-c2ccccc2)c(-c2ccc(Cl)cc2)c2nnc(CN)n21
Input line: Please list the entries, largest solubility first. Your answer should be the labels, listed in the requested order.
Output line: e, b, a, d, c
